Each item that follows carries a reported % of Day 0.
experiment: Stability testing of steroids and NSAIDS combined with 0.6% povidone iodine at room temperature
conditionSummary: four weeks, room temperature, 0.6% PVP-I, mean of replicates
quantityMeasured: % of Day 0 (%)

| molecule | quantityMeasured | unitText | result |
| --- | --- | --- | --- |
| CC(=O)[C@@]1(O)CC[C@H]2[C@@H]3C[C@H](C)C4=CC(=O)C=C[C@]4(C)[C@@]3(F)[C@@H](O)C[C@@]21C | % of Day 0 | % | 98.44 |
| Nc1c(CC(=O)O)cccc1C(=O)c1ccc(Br)cc1 | % of Day 0 | % | 99.37 |
| C[C@]12C=CC(=O)C=C1CC[C@@H]1[C@@H]2C(=O)C[C@@]2(C)[C@H]1CC[C@]2(O)C(=O)COP(=O)([O-])[O-].[Na+].[Na+] [Prednisone sodium phosphate, prednisone sodium phosphate] | % of Day 0 | % | 95.66 |
| CCC(=O)[C@@]1(C)[C@H](C)C[C@H]2[C@@H]3CCC4=CC(=O)C=C[C@]4(C)[C@H]3[C@@H](O)C[C@@]21C [Rimexolone, rimexolone] | % of Day 0 | % | 99.88 |
| NC(=O)Cc1cccc(C(=O)c2ccccc2)c1N | % of Day 0 | % | 97.2 |
| CC(=O)OCC(=O)[C@@]1(O)CC[C@H]2[C@@H]3CCC4=CC(=O)CC[C@]4(C)[C@H]3[C@@H](O)C[C@@]21C [Hydrocortisone acetate, hydrocortisone acetate] | % of Day 0 | % | 100.95 |

----------
Each item that follows carries a reported % of Day 0.
experiment: Stability testing of steroids combined with povidone iodine (PVP-I, 0.4%), HPLC/UV with LC-MS/MS confirmation
conditionSummary: one month, room temp, with PVP-I 0.4%

| compound | % of Day 0 |
| --- | --- |
| CCCC(=O)O[C@]1(C(=O)COC(C)=O)CC[C@H]2[C@@H]3C[C@H](F)C4=CC(=O)C=C[C@]4(C)[C@@]3(F)[C@@H](O)C[C@@]21C [Difluprednate] | 104.47% |
| CC(=O)OCC(=O)[C@@]1(O)CC[C@H]2[C@@H]3CCC4=CC(=O)C=C[C@]4(C)[C@H]3[C@@H](O)C[C@@]21C [Prednisolone Acetate] | 95.66% |
| CCOC(=O)O[C@]1(C(=O)OCCl)CC[C@H]2[C@@H]3CCC4=CC(=O)C=C[C@]4(C)[C@H]3[C@@H](O)C[C@@]21C [Loteprednol Etabonate] | 100.72% |
| C[C@@H]1C[C@H]2[C@@H]3CCC4=CC(=O)C=C[C@]4(C)[C@@]3(F)[C@@H](O)C[C@]2(C)[C@@]1(O)C(=O)COP(=O)([O-])[O-].[Na+].[Na+] [Dexamethasone Sodium Phosphate] | 84.24% |

----------
experiment: Stability testing of steroids and NSAIDS combined with 0.6% povidone iodine at room temperature
conditionSummary: four weeks control, spiked 50 μL of H2O, room temperature without PVP-I
Each item that follows carries a reported % of Std.

| compound | % of Std / % |
| --- | --- |
| CCC(=O)[C@@]1(C)[C@H](C)C[C@H]2[C@@H]3CCC4=CC(=O)C=C[C@]4(C)[C@H]3[C@@H](O)C[C@@]21C [Rimexolone, rimexolone] | 97.09 |
| Nc1c(CC(=O)O)cccc1C(=O)c1ccc(Br)cc1 | 100.03 |
| C[C@]12C=CC(=O)C=C1CC[C@@H]1[C@@H]2C(=O)C[C@@]2(C)[C@H]1CC[C@]2(O)C(=O)COP(=O)([O-])[O-].[Na+].[Na+] [Prednisone sodium phosphate, prednisone sodium phosphate] | 100.57 |
| CC(=O)[C@@]1(O)CC[C@H]2[C@@H]3C[C@H](C)C4=CC(=O)C=C[C@]4(C)[C@@]3(F)[C@@H](O)C[C@@]21C | 99.22 |
| CC(=O)OCC(=O)[C@@]1(O)CC[C@H]2[C@@H]3CCC4=CC(=O)CC[C@]4(C)[C@H]3[C@@H](O)C[C@@]21C [Hydrocortisone acetate, hydrocortisone acetate] | 101.66 |
| NC(=O)Cc1cccc(C(=O)c2ccccc2)c1N | 98.76 |
